# PROTOCOL SUMMARY: Protein binding in mouse serum at 30 ug/ml by ultrafiltration method
# Format: ADME, cell-free
# PARTICULARS: read-out: PB (converted)
READOUT KIND: fraction unbound at 30 ug/ml
# respond with the number and nothing more

Prompt: Suppose we examine the compound `C[C@H]1C=C(c2csc(SC3=C(C(=O)O)N4C(=O)[C@H]([C@@H](C)O)[C@H]4[C@H]3C)n2)CN1` ; what fraction unbound at 30 ug/ml value has been reported?
Completion: 0.24
